Values were extracted from ChEMBL document CHEMBL4513216.

test: Toxicity liver stage against HepG2, at 10uM; type: cell-based; design: test concentration 10 uM, cell line HepG2-A16-CD81EGFP; conditions: human, HepG2-A16-CD81EGFP cells; read-out: INHIBITION
assay_metric: cytotoxicity at 10 µM (%)

# compound, assay_metric, unit_spec, result_number
records = [
    ("CN(C)C(=O)C1CCCN1CCCNC(=O)c1ccccc1F (centres undefined)", "cytotoxicity at 10 µM", "%", -20.2),
    ("Cc1ccc(Br)c(S(=O)(=O)NCc2cnn(C)c2)c1", "cytotoxicity at 10 µM", "%", 6.95),
    ("CCn1cnnc1CNC(=O)NCC(O)c1ccc(OC)cc1 (centres undefined)", "cytotoxicity at 10 µM", "%", 5.66),
    ("COc1ccc2cc(C3CN(C(=O)CN4CCCC4)CCO3)ccc2c1 (centres undefined)", "cytotoxicity at 10 µM", "%", -6.88),
    ("CCN(CC)C(=O)CN(C)C(=O)c1cc(-c2cccc(Cl)c2)no1", "cytotoxicity at 10 µM", "%", 4.28),
    ("COCC(=O)N1CCC(c2nc3ccc(N4CCOCC4)cn3n2)CC1", "cytotoxicity at 10 µM", "%", 12),
    ("CNC(=O)CCc1cccc(C2CCCN(c3cc(C)ncn3)C2)n1 (centres undefined)", "cytotoxicity at 10 µM", "%", 1.58),
    ("Cc1ccc(NC(=O)Cc2c(C)nc3c(c2C)c(=O)[nH]n3C)cc1F", "cytotoxicity at 10 µM", "%", 6.87),
    ("CN1CCc2c(C#N)c(NCCCN3CCOCC3)n3cnnc3c2C1", "cytotoxicity at 10 µM", "%", -7.14),
    ("CCc1nc(C)c(C(=O)NCCNc2cnccn2)s1", "cytotoxicity at 10 µM", "%", -4.64),
    ("c1cnc(NCc2cncc3c2CCN(Cc2ccoc2)C3)nc1", "cytotoxicity at 10 µM", "%", -70.9),
    ("COC(=O)C(CNC(=O)Nc1nncs1)Cc1ccc(F)cc1 (centres undefined)", "cytotoxicity at 10 µM", "%", 0.571),
    ("Cc1cccc(OC2CN(C(=O)C3CC(=O)N(C4CC4)C3)C2)c1 (centres undefined)", "cytotoxicity at 10 µM", "%", -0.503),
    ("COc1cc(C2CC(=O)Nc3c2nc2n3CCCC2)ccc1O (centres undefined)", "cytotoxicity at 10 µM", "%", -4.27),
    ("NS(=O)(=O)CCCNC(=O)C1(c2cccc(Cl)c2)CC1", "cytotoxicity at 10 µM", "%", -4.02),
    ("CN(Cc1ccc(Cl)s1)C(=O)COc1cccc(C(N)=O)c1", "cytotoxicity at 10 µM", "%", -2.83),
    ("CC(CNC(=O)N1CCN(Cc2ccon2)CC1)N(C)C1CC1 (centres undefined)", "cytotoxicity at 10 µM", "%", -6.74),
    ("Cc1ncoc1C(=O)N1C[C@@H]2CN(CC3CC3)CCO[C@@H]2C1", "cytotoxicity at 10 µM", "%", 9.23),
    ("CCCN1CCN(C(=O)CCn2cccc2)CC1", "cytotoxicity at 10 µM", "%", 6.14),
    ("CCCC(NC(=O)c1cc(C2CC2)[nH]n1)c1nnc2ccccn12 (centres undefined)", "cytotoxicity at 10 µM", "%", 0.11),
    ("CCN(CC)C(=O)CCCNC(=O)Cc1nc(-c2ccco2)oc1C", "cytotoxicity at 10 µM", "%", 1.57),
    ("CC(=O)N1CCN(C(=O)c2cnn(-c3ccccc3Cl)c2)CC1", "cytotoxicity at 10 µM", "%", -8.72),
    ("c1ccc(-c2ncc(CN3CCC4(CCNCC4)C3)cn2)cc1", "cytotoxicity at 10 µM", "%", -5.71),
    ("CCc1noc(C(C)N2CCN(Cc3nnc(C4CC4)o3)CC2)n1 (centres undefined)", "cytotoxicity at 10 µM", "%", -4.79),
]

###

assay: Toxicity liver stage against HepG2, at 10uM; assay type: cell-based; set-up: test concentration 10 uM, cell line HepG2-A16-CD81EGFP; conditions: human, HepG2-A16-CD81EGFP cells; read-out: INHIBITION

# compound, unit_spec, cytotoxicity at 10 µM
rows = [
    ("CCc1ncc2c(n1)CN(Cc1cccc3c1OCCO3)CC2", "%", -8.42),
    ("CC(C)Sc1ccc(C(C)NC(=O)Cn2cccnc2=O)cc1 (stereo unspecified)", "%", 16.8),
    ("c1ccc(-n2nnnc2NCc2ccc3c(c2)OCO3)cc1", "%", 29.5),
    ("COc1ccc(C)cc1-n1cnnc1C1CCCN(C)C1 (stereo unspecified)", "%", 6.43),
    ("CC1=N[C@@]2(CC[C@@H]3CN(S(=O)(=O)N(C)C)C[C@@H]32)C(=O)N1CC(C)C", "%", 3.16),
    ("COc1ccc(C)cc1-c1[nH]c2ccccc2c1C(=O)O", "%", 0.806),
    ("CC(C)c1noc(CN(C)C(=O)C2COc3ccccc3C2)n1 (stereo unspecified)", "%", 2.77),
    ("Cc1ncc(CN(C)C(=O)Nc2cccc(C(=O)N3CCOCC3)c2)s1", "%", 11.6),
    ("Cn1cc(C#N)c(=O)n(CC(O)c2ccccc2F)c1=O (stereo unspecified)", "%", -11),
    ("Cc1cc(C)nc(NC(C)Cc2cnccn2)n1 (stereo unspecified)", "%", 1.54),
    ("COCc1nc(C(=O)NS(=O)(=O)c2c(C)c(C)cc(C)c2C)cs1", "%", -8.01),
]

###

assay: Toxicity liver stage against HepG2, at 10uM; format: cell-based; design: test concentration 10 uM, cell line HepG2-A16-CD81EGFP; settings: human, HepG2-A16-CD81EGFP cells; read-out: INHIBITION

# compound, unit_spec, cytotoxicity at 10 µM
data = [
    ("CNC(=O)N1Cc2cc(F)ccc2C2(CCN(C)CC2)C1", "%", 0.595),
    ("NS(=O)(=O)c1cccnc1NCc1ccco1", "%", -8.21),
    ("COc1ccccc1CN(Cc1cccnc1)Cc1nccs1", "%", -1.53),
    ("Fc1ccc(C2CN(c3ncnc4[nH]ncc34)CCO2)cc1 (configuration not stated)", "%", 27.1),
    ("O=C(NC1CCCC1)c1cc(Cn2cnc3ccccc32)on1", "%", 4.51),
    ("Cc1ccc(C(=O)Nc2nnc(C3CC3)s2)c(-n2cnnn2)c1C", "%", 12.3),
    ("CCNC(=O)[C@@H]1C[C@H](N)CN1c1cc(C(F)(F)F)nc(N(C)C)n1", "%", -14.1),
    ("Cc1nn(C)c(Cl)c1C1CCCN1C(=O)c1ccc[nH]1 (configuration not stated)", "%", -8.57),
    ("CN1CCCC(NC(=O)c2ccc(C(=O)c3cc[nH]c3)cc2)C1 (configuration not stated)", "%", 11.9),
    ("Cc1nc(C(=O)N2CCN(c3ccc(Cl)c(Cl)c3)CC2)cs1", "%", 2.35),
    ("O=C(NCCc1cnccn1)c1cccc(S(=O)(=O)NC2CCOC2)c1 (configuration not stated)", "%", 6.3),
    ("Nc1nnc(CCCNC(=O)c2ccc(C3CCCNC3)cc2)s1 (configuration not stated)", "%", -1.28),
]

###

assay: Toxicity liver stage against HepG2, at 10uM; type: cell-based; parameters: test concentration 10 uM, cell line HepG2-A16-CD81EGFP; conditions: human, HepG2-A16-CD81EGFP cells; read-out: INHIBITION
Quick reference for cytotoxicity at 10 µM among some compounds

# compound, cytotoxicity at 10 µM
rows = [
    ("CN(C)C(=O)N1CCCC(C(=O)N(C)Cc2cnc(N)nc2)C1 (stereo unspecified)", "-2.81%"),
    ("CSC(C)C(=O)N1CCCN(Cc2cnn(C(C)C)c2)CC1 (stereo unspecified)", "-6.29%"),
    ("CC(C)N1CC2(CCCN(c3ccnc4ccccc34)C2)CCC1=O (stereo unspecified)", "8.62%"),
    ("Cc1cccc2sc(NC(=O)CN3CCCC(O)(CO)C3)nc12 (stereo unspecified)", "16.9%"),
    ("CNc1cncc(C2CCCN2Cc2ccnc(N3CCCC3)n2)n1 (stereo unspecified)", "-12.1%"),
    ("COc1ccc(S(=O)(=O)N2CCC(S(C)(=O)=O)CC2)cc1C", "2.4%"),
]

###

# cytotoxicity at 10 µM per entry
experiment: Toxicity liver stage against HepG2, at 10uM; type: cell-based; parameters: test concentration 10 uM, cell line HepG2-A16-CD81EGFP; settings: human, HepG2-A16-CD81EGFP cells; read-out: INHIBITION

# compound, cytotoxicity at 10 µM
records = [
    ("COC(=O)NCCCC(=O)NC1(c2cccc(Cl)c2)CC1", "-2.56%"),
    ("CSCC(=O)N1C[C@@H]2CC[C@H]1CN(Cc1ccccc1)C2", "-14.9%"),
    ("Cc1ccc(-n2cnnn2)cc1NCC(=O)Nc1cc(F)ccc1F", "6.23%"),
    ("CN(C)c1ccc(C(=O)Nc2ccn(CCc3ccncc3)n2)cc1", "-4.59%"),
    ("Cn1ccnc1CN1CCCC(Cc2ccnc3ccncc23)CC1 (stereo not given)", "-0.751%"),
    ("Cc1cnn(C2CN(CCOc3ccc(C#N)cc3)C2)c1", "1.77%"),
    ("O=C(CCn1ccccc1=O)Nc1ccc(C(=O)O)cc1", "4.74%"),
    ("c1cnn(CC2CN(Cc3ccc(-n4ccnc4)cc3)CCO2)c1 (stereo not given)", "-3.12%"),
    ("c1ccc(-c2ccc3nc(C4CCN(CC5CC5)CC4)nn3c2)cc1", "-7.32%"),
    ("CN1CCC2(CC1)CNC(=O)c1ccccc1O2", "-1.24%"),
    ("COc1ccc(CNC(=O)NCc2nc(C)c(C)s2)cn1", "8.73%"),
    ("CC1(C)CC(CN2CCC3(CCC(=O)N(C4CCC4)C3)CC2)CCO1 (stereo not given)", "0.986%"),
    ("O=C(c1ccccc1)N1CCO[C@@H]2CN(Cc3ccc[nH]3)C[C@@H]2C1", "-98%"),
    ("Cc1cccc2c1nc(COCC(=O)O)n2-c1cnc(N)cn1", "0.238%"),
    ("CC(C)c1cc(C(=O)N2CCOC3(CCNCC3)C2)no1", "3.65%"),
    ("COc1ccc(Cl)cc1CN1CC(n2cccn2)C1", "-1.73%"),
    ("CC(C)NC(=O)CNC(=O)OC(C)(C)C", "9.39%"),
    ("COc1cccc(-c2noc(C3CCN(Cc4ccc(C)cc4)C3)n2)c1 (stereo not given)", "-5.89%"),
    ("CC(NCCCc1cnn(C)c1)c1ccc(Br)s1 (stereo not given)", "9.59%"),
    ("Cc1nc(C2CCCN(C(=O)c3c[nH]c(C(C)C)n3)C2)no1 (stereo not given)", "-7.52%"),
    ("CC(C)N(C)Cc1cn2c(n1)CN(Cc1ccsc1)CC2", "-16.1%"),
    ("CCCS(=O)(=O)N1CCn2cc(CNc3ccccn3)nc2C1", "9.1%"),
    ("CC1(C)CC(N(Cc2cccnc2)Cc2cccc(F)c2)CC(C)(C)N1", "-6.41%"),
    ("CCOCC1CN(S(=O)(=O)CC)Cc2nn(C)cc21 (stereo not given)", "-111%"),
    ("N#CCSCCCN1CCCC(C(=O)N2CCCCCC2)C1 (stereo not given)", "4.01%"),
]
